target: T1, alpha4beta7 on 38C13 alpha4+ murine lymphoma cells transfected with integrin beta7 (38C13beta7 cells) (murine, UniProt Q00651 41-1039; P26011 20-806)
T1 construct: whole, on cells; also called 38C13-beta7 expressing cells; murine beta7-containing receptor
T1 sequence (Q00651 41-1039, chain 1 of 2): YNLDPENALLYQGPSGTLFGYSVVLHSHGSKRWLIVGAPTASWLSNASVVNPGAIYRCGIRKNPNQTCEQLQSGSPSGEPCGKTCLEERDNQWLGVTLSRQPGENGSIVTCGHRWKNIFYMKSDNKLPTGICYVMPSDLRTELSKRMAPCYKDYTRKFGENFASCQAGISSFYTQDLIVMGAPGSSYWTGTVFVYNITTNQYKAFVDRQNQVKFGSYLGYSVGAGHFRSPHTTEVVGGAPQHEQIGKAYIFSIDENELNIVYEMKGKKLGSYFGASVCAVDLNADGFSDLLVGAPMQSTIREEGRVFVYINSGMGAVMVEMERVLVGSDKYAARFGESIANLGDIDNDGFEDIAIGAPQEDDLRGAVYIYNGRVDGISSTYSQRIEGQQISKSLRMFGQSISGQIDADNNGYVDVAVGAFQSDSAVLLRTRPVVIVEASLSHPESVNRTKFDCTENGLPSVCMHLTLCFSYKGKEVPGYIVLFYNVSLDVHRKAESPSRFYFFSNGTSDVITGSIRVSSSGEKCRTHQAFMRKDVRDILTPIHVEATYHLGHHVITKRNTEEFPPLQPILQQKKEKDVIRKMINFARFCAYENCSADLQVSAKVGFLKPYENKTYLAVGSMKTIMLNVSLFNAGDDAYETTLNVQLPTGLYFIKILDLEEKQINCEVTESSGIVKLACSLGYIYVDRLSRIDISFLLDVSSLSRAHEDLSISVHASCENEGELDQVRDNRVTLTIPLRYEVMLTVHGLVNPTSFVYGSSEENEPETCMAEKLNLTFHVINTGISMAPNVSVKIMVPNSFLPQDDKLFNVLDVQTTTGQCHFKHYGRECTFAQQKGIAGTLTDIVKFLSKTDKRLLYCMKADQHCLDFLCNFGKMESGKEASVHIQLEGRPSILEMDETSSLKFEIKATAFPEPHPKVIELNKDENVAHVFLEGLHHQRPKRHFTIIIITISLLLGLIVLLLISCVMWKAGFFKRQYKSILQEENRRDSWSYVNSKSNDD
T1 sequence (P26011 20-806, chain 2 of 2): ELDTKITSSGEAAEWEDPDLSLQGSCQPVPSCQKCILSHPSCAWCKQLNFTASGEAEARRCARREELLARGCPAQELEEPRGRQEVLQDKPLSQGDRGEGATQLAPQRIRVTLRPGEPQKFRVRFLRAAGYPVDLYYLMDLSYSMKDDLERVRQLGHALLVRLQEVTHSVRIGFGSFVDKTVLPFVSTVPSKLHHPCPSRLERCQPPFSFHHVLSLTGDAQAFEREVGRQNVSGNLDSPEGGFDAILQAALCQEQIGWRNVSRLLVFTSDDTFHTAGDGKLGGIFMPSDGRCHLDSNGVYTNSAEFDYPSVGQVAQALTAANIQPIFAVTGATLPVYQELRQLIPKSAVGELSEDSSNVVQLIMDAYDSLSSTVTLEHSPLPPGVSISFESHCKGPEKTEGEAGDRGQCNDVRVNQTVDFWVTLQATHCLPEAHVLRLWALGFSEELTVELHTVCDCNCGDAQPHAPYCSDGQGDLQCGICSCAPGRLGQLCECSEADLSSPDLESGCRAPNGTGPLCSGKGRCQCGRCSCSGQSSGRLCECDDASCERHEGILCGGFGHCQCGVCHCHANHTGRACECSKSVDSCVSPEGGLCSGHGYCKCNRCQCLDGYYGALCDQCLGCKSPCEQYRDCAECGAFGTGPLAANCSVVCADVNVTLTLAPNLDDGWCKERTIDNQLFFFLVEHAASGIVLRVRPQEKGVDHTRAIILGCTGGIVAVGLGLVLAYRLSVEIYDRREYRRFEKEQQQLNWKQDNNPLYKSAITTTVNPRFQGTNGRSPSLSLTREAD
assay_comment: cell adhesion inhibition, 38C13beta7 cells on coated muVCAM-1-Ig, experiment 1 of 2
experimental_readout: IC90 (nM)
Answer with a number only, understood to be in nM.

Example cases with answers are listed next.
Variant hu504.32, IgG (antibody, V domains shown, methionine at heavy chain position 94; also called hu504.32M; 504.32M) VH: EVQLVESGGGLVQPGGSLRLSCAASGFFITNNYWGWVRQAPGKGLEWVGYISYSGSTSYNPSLKSRFTISRDTSKNTFYLQMNSLRAEDTAVYYCAMTGSSGYFDFWGQGTLVTVSS VL: DIQMTQSPSSLSASVGDRVTITCRASESVDDLLHWYQQKPGKAPKLLIKYASQSISGVPSRFSGSGSGTDFTLTISSLQPEDFATYYCQQGNSLPNTFGQGTKVEIKR; 2
Rat Fib504 (antibody FIB504.64 produced by hybridoma ATCC HB-293) (antibody, V domains shown, Whole rat antibody in the cell adhesion assays; also called rat anti-mouse beta7 antibody) VH: EVQLQESGPGLVKPSQSLSLTCSVTGFFITNNYWGWIRKFPGNKMEWMGYISYSGSTSYNPSLKSRISITRDTSKNQFFLQLNSVTTEDTATYYCAMTGSSGYFDFWGPGTMVTVSS VL: DVVMTQSPATLSVTPGERISLSCRASESVDTYLHWYQQKPNESPRLLIKYASQSISGIPSRFSGSGSGTDFTLSINGVELEDLSIYYCQQGNSLPNTFGAGTKLELKR; 2.9
Variant hu504.5, IgG (antibody, name in Kabat numbering, V domains shown) VH: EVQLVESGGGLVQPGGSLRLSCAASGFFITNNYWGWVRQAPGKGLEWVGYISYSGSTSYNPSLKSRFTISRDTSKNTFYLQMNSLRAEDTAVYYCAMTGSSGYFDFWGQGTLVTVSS VL: DIQMTQSPSSLSASVGDRVTITCRASESVDSLLHWYQQKPGKAPKLLIKYASQSISGVPSRFSGSGSGTDFTLTISSLQPEDFATYYCQQGNSLPNTFGQGTKVEIKR; 3.07

Here is another binder to look at.
Notebook: Variant hu504.16, IgG (antibody, name in Kabat numbering, V domains shown) VH: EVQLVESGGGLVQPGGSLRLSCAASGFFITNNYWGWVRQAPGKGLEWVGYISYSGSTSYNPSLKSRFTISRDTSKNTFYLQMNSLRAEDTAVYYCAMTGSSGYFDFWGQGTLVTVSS VL: DIQMTQSPSSLSASVGDRVTITCRASESVDTLLHWYQQKPGKAPKLLIKYASQSISGVPSRFSGSGSGTDFTLTISSLQPEDFATYYCQQGNSLPNTFGQGTKVEIKR , IC90 read as 2.86
